System: tobacco budworm
Assay: Foliar evaluation, tobacco budworm
Assay type: in vivo
Conditions: Heliothis virescens, rate 100 ppm, 48 hours, read-out: % Kill TBW

compound	experimentalTarget	mortality at 100 ppm [%]
Clc1ccc(C(C=CCc2cccc(Oc3ccccc3)c2)C2CC2)cc1 (stereo not drawn)	tobacco budworm	100
FC(F)(F)c1ccc(C(C=CCc2cccc(Oc3ccccc3)c2)C2CC2)cc1 (stereo not drawn)	tobacco budworm	100
FC(F)(F)Oc1ccc(C(C=CCc2cccc(Oc3ccccc3)c2)C2CC2)cc1 (stereo not drawn)	tobacco budworm	80
Fc1ccc(CC=CC(c2ccc(OC(F)(F)F)cc2)C2CC2)cc1Oc1ccccc1 (stereo not drawn)	tobacco budworm	100
Fc1ccc(CC=CC(c2ccc(C(F)(F)F)cc2)C2CC2)cc1Oc1ccccc1 (stereo not drawn)	tobacco budworm	100
Fc1ccc(CC=CC(c2ccc(Cl)cc2)C2CC2)cc1Oc1ccccc1 (stereo not drawn)	tobacco budworm	100
